biological target: Glutamate carboxypeptidase 2 (Homo sapiens, UniProt Q04609); experiment: Binding affinity to human recombinant PSMA (unknown origin) assessed as inhibition constant incubated for 60 mins in presence of NAAG
Sequence (Q04609 whole entry): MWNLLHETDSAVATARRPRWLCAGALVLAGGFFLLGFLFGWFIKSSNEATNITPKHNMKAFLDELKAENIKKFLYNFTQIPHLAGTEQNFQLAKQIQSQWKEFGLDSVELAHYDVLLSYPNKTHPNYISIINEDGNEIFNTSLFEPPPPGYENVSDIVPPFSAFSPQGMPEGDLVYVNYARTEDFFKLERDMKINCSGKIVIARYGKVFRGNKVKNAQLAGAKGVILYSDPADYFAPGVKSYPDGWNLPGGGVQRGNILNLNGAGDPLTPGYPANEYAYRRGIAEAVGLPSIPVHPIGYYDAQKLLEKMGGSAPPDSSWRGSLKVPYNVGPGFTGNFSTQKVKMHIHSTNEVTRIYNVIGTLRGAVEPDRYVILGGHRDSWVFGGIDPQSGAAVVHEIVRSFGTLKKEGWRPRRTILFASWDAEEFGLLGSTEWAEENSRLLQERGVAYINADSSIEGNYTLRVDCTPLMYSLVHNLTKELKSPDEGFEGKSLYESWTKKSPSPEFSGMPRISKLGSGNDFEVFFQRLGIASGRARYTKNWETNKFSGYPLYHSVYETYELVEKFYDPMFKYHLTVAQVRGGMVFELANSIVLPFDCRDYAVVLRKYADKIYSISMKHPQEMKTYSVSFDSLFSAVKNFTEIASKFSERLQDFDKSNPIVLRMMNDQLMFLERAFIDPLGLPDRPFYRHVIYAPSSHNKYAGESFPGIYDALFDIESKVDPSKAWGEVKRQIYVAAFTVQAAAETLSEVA
parameter: Ki (nM)

O=C(N[C@@H](CCCCNC(=O)c1cc(I)cc(C(=O)NCCCC[C@H](NC(=O)N[C@@H](CNc2c(O)c(=O)c2=O)C(=O)O)C(=O)O)c1)C(=O)O)N[C@@H](CNc1c(O)c(=O)c1=O)C(=O)O	0.4
O=C(N[C@@H](CCCCNC(=O)c1cc(F)cc(C(=O)NCCCC[C@H](NC(=O)N[C@@H](CNc2c(O)c(=O)c2=O)C(=O)O)C(=O)O)c1)C(=O)O)N[C@@H](CNc1c(O)c(=O)c1=O)C(=O)O	0.41
O=C(O)CC[C@H](Nc1c(N[C@@H](CCCCNC(=O)c2cc(I)cc(C(=O)NCCCC[C@H](Nc3c(N[C@@H](CCC(=O)O)C(=O)O)c(=O)c3=O)C(=O)O)c2)C(=O)O)c(=O)c1=O)C(=O)O	107

a. O=C(NC(CCCCNC(=O)c1ccc(I)cc1)C(=O)O)N[C@@H](CNc1c(O)c(=O)c1=O)C(=O)O (some centres undefined)
b. O=C(O)CC(=O)NC[C@H](NC(=O)N[C@@H](CCCCNC(=O)c1ccc(I)cc1)C(=O)O)C(=O)O
c. O=C(O)CC[C@H](NC(=O)N[C@@H](CCCNC(=O)c1ccc(F)cc1)C(=O)O)C(=O)O
[Q] Highest Ki first, then in falling order down to the smallest. Could you list the labels in the order requested?
[A] b, a, c

1. O=C(O)CC(=O)NC[C@H](NC(=O)N[C@@H](CCCCNC(=O)c1cc(I)cc(C(=O)NCCCC[C@H](NC(=O)N[C@@H](CNC(=O)CC(=O)O)C(=O)O)C(=O)O)c1)C(=O)O)C(=O)O
2. CN(CCC(=O)NCCCC[C@H](NC(=O)N[C@@H](CNc1c(O)c(=O)c1=O)C(=O)O)C(=O)O)c1ccc(-c2c3c(c(-c4ccc(N(C)CCC(=O)NCCC[C@H](NC(=O)N[C@@H](CNc5c(O)c(=O)c5=O)C(=O)O)C(=O)O)cc4)c4nsnc24)N=S=N3)cc1
[Q] Sorting ascending by Ki, which comes first: 1 or 2 ? Selection: enter the item's label.
[A] 2
(2: 1.07 nM, 1: 33.8 nM)

FYI, the data here is from ChEMBL document CHEMBL5338776.
